Experiment: Clearance in human liver microsomes at 0.625 uM preincubated for 5 mins followed by NADPH addition and measured after 60 mins by LC-MS/MS analysis
Format: ADME, microsome
Conditions: read-out: CLH
Consider the following compounds; for each one, report its microsomal CLint at 0.625 µM.
Numbers only, in µL/min/mg.

* Cc1cc(-c2ccc3c(c2)CCC3N2CCC(N(C)C(=O)N[C@@H](C)c3ccc(C#CC4CC4)c(Cl)c3Cl)CC2)ncn1 (some centres undefined) | 53.9
* COc1ccc([C@H](C)NC(=O)N(C)C2CCN(C3CCc4cc(Cl)ccc43)CC2)c(Cl)c1Cl (some centres undefined) | 241

Would you be so kind as to report microsomal CLint at 0.625 µM for each listed record?
1. COc1ccc([C@H](C)NC(=O)N(C)C2CCN(C3CCc4cc(O)ccc43)CC2)c(Cl)c1Cl (some centres undefined)
2. COc1ccc([C@H](C)NC(=O)N(C)C2CCN(C3CCc4cc(-c5cc(C)ncn5)ccc43)CC2)c(Cl)c1Cl (some centres undefined)

RESULT:
[87.1, 94.2]

Give measured microsomal CLint at 0.625 µM for every item shown.
1. Cc1cc(-c2ccc3c(c2)CC[C@H]3N2CCC(N(C)C(=O)N[C@@H](C)c3ccc(C#CC4CC4)c(Cl)c3Cl)CC2)ncn1
2. COc1ccc([C@H](C)NC(=O)N(C)C2CCN(C3CCc4cc(-n5nccn5)ccc43)CC2)c(Cl)c1Cl (some centres undefined)
3. C#Cc1ccc([C@H](C)NC(=O)N(C)C2CCN(C3CCc4cc(-c5cc(C)ncn5)ccc43)CC2)c(Cl)c1Cl (some centres undefined)

RESULT:
[74.7, 79.8, 165]

Here are 2 compounds. What values of microsomal CLint at 0.625 µM were reported for them?
1. COc1ccc([C@H](C)NC(=O)N(C)C2CCN(C3CCc4cc(N)ccc43)CC2)c(Cl)c1Cl (some centres undefined)
2. COc1ccc([C@H](C)NC(=O)N(C)C2CCN(C3CCc4cc(C)ccc43)CC2)c(Cl)c1Cl (some centres undefined)

RESULT:
47.1
80.3

###

Assay: Plasma clearance in rat at 3 mg/kg, iv after 24 hrs by LC-MS/MS analysis
Assay type: ADME, organism-based
measure-name: clearance (mL/min/kg)
Numbers only, in mL/min/kg.

# clearance (molecule: "Cc1cc(-c2ccc3c(c2)CC[C@H]3N2CCC(N(C)C(=O)N[C@@H](C)c3ccc(C#CC4CC4)c(Cl)c3Cl)CC2)ncn1" ) is 15.2

###

System: MDR1
Assay: Apparent permeability across apical to basolateral side in MDCK2 cells expressing human MDR1 at 1 uM after 90 mins in absence of MDR1 inhibitor cyclosporine A by LC-MS/MS analysis
Format: ADME, cell-based, Canis lupus familiaris, MDCK-II
Conditions: dog, MDCK-MDR1
measure-name: Papp A→B at 1.5 h, 1 µM (×10⁻⁶ cm/s)
Give bare numbers, in ×10⁻⁶ cm/s.

get_value(item= "Cc1cc(-c2ccc3c(c2)CC[C@H]3N2CCC(N(C)C(=O)N[C@@H](C)c3ccc(C#CC4CC4)c(Cl)c3Cl)CC2)ncn1" , readout=Papp A→B at 1.5 h, 1 µM) returns 3.9

###

Biological target: Growth hormone secretagogue receptor type 1 (Homo sapiens)
Sequence (Q92847 whole entry): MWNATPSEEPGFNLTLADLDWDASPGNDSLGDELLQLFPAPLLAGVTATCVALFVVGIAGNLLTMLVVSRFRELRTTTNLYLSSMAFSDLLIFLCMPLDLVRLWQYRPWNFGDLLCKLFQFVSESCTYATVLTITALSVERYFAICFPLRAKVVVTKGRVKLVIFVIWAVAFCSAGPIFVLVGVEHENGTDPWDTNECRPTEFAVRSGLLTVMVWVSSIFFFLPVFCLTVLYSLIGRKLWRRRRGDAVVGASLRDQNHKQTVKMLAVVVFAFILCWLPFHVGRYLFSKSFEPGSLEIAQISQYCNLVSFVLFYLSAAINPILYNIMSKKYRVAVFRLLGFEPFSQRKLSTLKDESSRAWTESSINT
Assay: Inverse agonist at recombinant human GHSR1a expressed in HEK293 cells assessed as decrease in IP1 accumulation after 1 hr by IP1-d2-based HTRF assay
Type: functional, cell-based
Conditions: read-out: EC50
pEC50: −log10 of the molar value.
Tag: Met if measured pEC50 is not below 7, Not met if it is.

Consider the worked cases shown below.
* COc1ccc([C@H](CC2CC2)NC(=O)N(C)C2CCN(C3CCc4cc(-c5cc(C)ncn5)ccc43)CC2)c(Cl)c1Cl (stereo not given in full) | Not met
* Cc1cc(-c2ccc3c(c2)CCC3N2CCC(N(C)C(=O)N[C@@H](C)c3ccc(C#CC4CC4)c(Cl)c3Cl)C(C)(C)C2)ncn1 (stereo not given in full) | Not met

QUERY: Has COc1ccc([C@H](C)NC(=O)N(C)C2CCN(C3CCc4cc(Cl)ccc43)CC2)c(Cl)c1Cl (stereo not given in full) a recorded pEC50 greater than or equal to 7?
RESULT: Met

QUERY: Please check the record Cc1cc(-c2ccc3c(c2)CCC3N2CCC(N(C)C(=O)N[C@@H](CC3CC3)c3ccc(-c4cnccn4)c(Cl)c3Cl)CC2)ncn1 (stereo not given in full) and state if its pEC50 is at or above 7.
RESULT: Not met

QUERY: Given Cc1cc(-c2ccc3c(c2)CCC3N2CCC(N(C)C(=O)N[C@@H](C)c3ccc(C4CC4)c(Cl)c3Cl)CC2)ncn1 (stereo not given in full) , state whether its pEC50 is at least 7.
RESULT: Not met

QUERY: Kindly determine if pEC50 recorded for Cc1cc(-c2ccc3c(c2)CCC3N2CCC(N(C)C(=O)N[C@@H](CC3CC3)c3cccc(Cl)c3Cl)CC2)ncn1 (stereo not given in full) is above or exactly 7.
RESULT: Not met

QUERY: Form field: pEC50 at least 7? Entry: Cc1cc(-c2ccc3c(c2)CCC3N2CCC(N(C)C(=O)N[C@H](c3ccc(-c4cnccn4)c(Cl)c3Cl)C(F)(F)F)CC2)ncn1 (stereo not given in full)
RESULT: Not met

QUERY: For this molecule, is measured pEC50 7 or higher? CCN(C(=O)N[C@@H](C)c1ccc(C#CC2CC2)c(Cl)c1Cl)C1CCN(C2CCc3cc(-c4cc(C)ncn4)ccc32)CC1 (stereo not given in full)
RESULT: Not met

QUERY: Hi team, for Cc1cc(-c2ccc3c(c2)CCC3N2CCC(N(C)C(=O)N[C@@H](C)c3ccc(C#CC4CC4)c(Cl)c3Cl)CC2)ncn1 (stereo not given in full) , is the recorded pEC50 at or above 7?
RESULT: Met

QUERY: Please tell me: is the molecule CC[C@H](NC(=O)N(C)C1CCN(C2CCc3cc(-c4cc(C)ncn4)ccc32)CC1)c1ccc(C#CC2CC2)c(Cl)c1Cl (stereo not given in full) at or over 7 in terms of pEC50?
RESULT: Not met

QUERY: Does the reported pEC50 for Cc1ccc2c(c1)CCC2N1CCC(N(C)C(=O)N[C@@H](C)c2ccc(O)c(Cl)c2Cl)CC1 (stereo not given in full) fall at or above the 7 mark?
RESULT: Not met

QUERY: Say whether "Cc1cc(-c2ccc3c(c2)CC[C@H]3N2CCC(N(C)C(=O)N[C@@H](C)c3ccc(C#CC4CC4)c(Cl)c3Cl)CC2)ncn1" shows pEC50 of 7 or more.
RESULT: Met

All values here come from ChEMBL document CHEMBL4257564.
